Measured viability, T/C, listed per entry for reference.
- Tested on: 171881-019-R-J1-PDC multicell spheroid viability;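 further: spheroids exposed to the agents for seven days before readout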
- Assay overview: Anticancer human tumor 171881-019-R-J1-PDC patient-derived invasive breast carcinoma cell line growth inhibition [IpAb]
- Experimental setup: second compound 0.0316 µM; first compound 1 µM; hits give low values
All answers are understood in %, so give the number only.

For orientation, consider the following solved cases.
Compound	Readout	Measured number
CCCS(=O)(=O)Nc1ccc(F)c(C(=O)c2c[nH]c3ncc(-c4ccc(Cl)cc4)cc23)c1F + CCN1CCN(Cc2ccc(Nc3ncc(F)c(-c4cc(F)c5nc(C)n(C(C)C)c5c4)n3)nc2)CC1	viability, T/C	91.6
C=CC(=O)N1CCN(c2nc(=O)n(-c3c(C)ccnc3C(C)C)c3nc(-c4c(O)cccc4F)c(F)cc23)C(C)C1 (stereo not drawn) + CCN1CCN(Cc2ccc(Nc3ncc(F)c(-c4cc(F)c5nc(C)n(C(C)C)c5c4)n3)nc2)CC1	viability, T/C	90.6

Exam item: Let me know recorded viability, T/C for COc1c(OCCCN2CCOCC2)ccc2c3n(c(=NC(=O)c4cnc(N)nc4)nc12)CCN3 + CCN1CCN(Cc2ccc(Nc3ncc(F)c(-c4cc(F)c5nc(C)n(C(C)C)c5c4)n3)nc2)CC1 , thanks.
Marked response: 1.5
